protocol_description: Cytotoxicity against human NCI60 cells assessed as cell growth at 10 uM
Type: functional
test_conditions: read-out: Activity
readout_kind: growth at 10 µM (%)

C=CCn1c(-c2nonc2NC(C)=O)nc2ccccc21: 96.5
Nc1nonc1-c1nc2ccccc2[nH]1: 103
Nc1nonc1-c1nc2ccccc2n1CC(=O)Nc1ccc2c(c1)COC2=O: 80.8
Nc1nonc1-c1nc2ccccc2n1Cc1nnn[nH]1: 103
Nc1nonc1-c1nc2ccccc2n1CC(=O)Nc1ccc(OC(F)(F)F)cc1: 105
Nc1nonc1-c1nc2ccccc2n1CC(=O)Nc1ccc(F)c(Cl)c1: 70.5
COc1ccc(NC(=O)Cn2c(-c3nonc3N)nc3ccccc32)cc1Cl: 100
Nc1nc(N)nc(Cn2c(-c3nonc3N)nc3ccccc32)n1: 102
CCOc1ccc(Cn2c(-c3nonc3N)nc3ccccc32)cc1OCC: 81
CC(C)(C)c1ccc(Cn2c(-c3nonc3N)nc3ccccc32)cc1: 67.4
CC(=O)Nc1nonc1-c1nc2ccccc2n1Cc1cccc(C(F)(F)F)c1: 82.2
COc1ccc(Cn2c(-c3nonc3NC(C)=O)nc3ccccc32)cc1: 85
Nc1nonc1-c1nc2ccccc2n1Cc1cc2c(cc1Cl)OCO2: 88.3
Nc1nonc1-c1nc2ccccc2n1Cc1ccncc1: 97
CC(=O)Nc1nonc1-c1nc2ccccc2n1Cc1ccc(Cl)cc1Cl: 76.7
O=C(Nc1nonc1-c1nc2ccccc2n1Cc1ccncc1)c1ccncc1: 97.1
Nc1nc(Cn2c(-c3nonc3N)nc3ccccc32)nc(N2CCCCC2)n1: 87.7
COc1ccc2[nH]c(-c3nonc3N)nc2c1: 101
Cc1ccc(NC(=O)Cn2c(-c3nonc3NC(=O)c3ccc(F)cc3)nc3ccccc32)cc1F: 71.8
Nc1nonc1-c1nc2ccccc2n1Cc1ccccn1: 89.3
Cc1ccc(Cn2c(-c3nonc3N)nc3ccccc32)cc1: 70.4
CC(=O)Nc1nonc1-c1nc2ccccc2n1Cc1ccc(C(C)(C)C)cc1: 73.5
CC(=O)Nc1nonc1-c1nc2ccccc2n1Cc1ccccn1: 104
